- RUN DESCRIPTION: Membrane permeabilization in eukaryotic membrane model consisting of single unilamellar vesicle of L-alpha-phosphatidylcholine-cholesterol assessed as 5(6)-carboxyfluorescein release at high peptide-to-lipid ratio after 50 mins by fluorescence assay
- Type: ADME, cell membranes
Non-standard residues stand in square brackets, D forms with d. Residues, ends and D or L forms follow the SMILES beside them. NhArg = N=C(N)NCCCCNCC(=O)O
EXPERIMENTAL ENDPOINT: Activity

1. CC[C@H](C)[C@H](NC(=O)[C@H](Cc1ccc(O)cc1)NC(=O)[C@@H](NC(=O)[C@@H]1CCCN1C(=O)[C@H](CCCNC(=N)N)NC(=O)[C@H](CC(N)=O)NC(=O)[C@H](CC(N)=O)NC(=O)CN)C(C)C)C(=O)N1CCC[C@H]1C(=O)N[C@@H](CCC(N)=O)C(=O)N1CCC[C@H]1C(=O)N(CCCCNC(=N)N)CC(=O)N1CCC[C@H]1C(=O)N[C@@H](Cc1cnc[nH]1)C(=O)N1CCC[C@H]1C(=O)N[C@@H](CCCNC(=N)N)C(=O)N[C@@H](CC(C)C)C(=O)O (H-GNNRPVYIPQP[NhArg]PHPRL-OH); Not Active
2. CC[C@H](C)[C@H](NC(=O)[C@H](Cc1ccc(O)cc1)NC(=O)[C@@H](NC(=O)[C@H](CCCNC(=N)N)NC(=O)[C@H](CC(N)=O)NC(=O)[C@H](CC(N)=O)NC(=O)CN)C(C)C)C(=O)N1CCC[C@H]1C(=O)N[C@@H](CCC(N)=O)C(=O)N1CCC[C@H]1C(=O)N[C@@H](CCCNC(=N)N)C(=O)N1CCC[C@H]1C(=O)N[C@@H](Cc1cnc[nH]1)C(=O)N1CCC[C@H]1C(=O)N[C@@H](CCCNC(=N)N)C(=O)N[C@@H](CC(C)C)C(=O)O (H-GNNRVYIPQPRPHPRL-OH); Not Active

----------
- System: Salmonella enterica subsp. enterica
- RUN DESCRIPTION: Antimicrobial activity against Salmonella enteritidis D5 after 18 hrs by broth microdilution susceptibility test
- Format: functional, Salmonella enterica subsp. enterica serovar Enteritidis
- CONDITIONS USED: D5, 18 h
Starred links: 1 amine or outer side, 2 acyl side, 3 side chain; linkers in the order of their positions; H or OH if unused. Non-standard residues stand in square brackets, D forms with d. Residues, ends and D or L forms follow the SMILES beside them. X1 = N=C(N)NCCN(CC(=O)[*:2])[*:1]
EXPERIMENTAL ENDPOINT: MIC

Query: Field request: MIC | item: CC[C@H](C)[C@H](NC(=O)[C@H](Cc1ccc(O)cc1)NC(=O)[C@@H](NC(=O)[C@@H]1CCCN1C(=O)[C@H](CCCNC(=N)N)NC(=O)[C@H](CC(N)=O)NC(=O)[C@H](CC(N)=O)NC(=O)CN)C(C)C)C(=O)N1CCC[C@H]1C(=O)N[C@@H](CCC(N)=O)C(=O)N1CCC[C@H]1C(=O)N[C@@H](CCCNC(=N)N)C(=O)N1CCC[C@H]1C(=O)N1CCC[C@H]1C(=O)N[C@@H](Cc1cnc[nH]1)C(=O)N1CCC[C@H]1C(=O)N(CCNC(=N)N)CC(=O)N[C@@H](CC(C)C)C(=O)O (H-GNNRPVYIPQPRPPHP[X1]L-OH)
Response: > 128 µM

----------
- RUN DESCRIPTION: Membrane permeabilization in eukaryotic membrane model consisting of single unilamellar vesicle of L-alpha-phosphatidylcholine-cholesterol assessed as 5(6)-carboxyfluorescein release at high peptide-to-lipid ratio after 20 mins by fluorescence assay
- Type: ADME, cell membranes
Non-standard residues stand in square brackets, D forms with d. Residues, ends and D or L forms follow the SMILES beside them. Gly(N-(CH2)3-guanidino) = N=C(N)NCCCNCC(=O)O
EXPERIMENTAL ENDPOINT: Activity

1. CC[C@H](C)[C@H](NC(=O)[C@H](Cc1ccc(O)cc1)NC(=O)[C@@H](NC(=O)[C@@H]1CCCN1C(=O)[C@H](CCCNC(=N)N)NC(=O)[C@H](CC(N)=O)NC(=O)[C@H](CC(N)=O)NC(=O)CN)C(C)C)C(=O)N1CCC[C@H]1C(=O)N[C@@H](CCC(N)=O)C(=O)N1CCC[C@H]1C(=O)N[C@@H](CCCNC(=N)N)C(=O)N1CCC[C@H]1C(=O)N1CCC[C@H]1C(=O)N[C@@H](Cc1cnc[nH]1)C(=O)N1CCC[C@H]1C(=O)N(CCCNC(=N)N)CC(=O)N[C@@H](CC(C)C)C(=O)O (H-GNNRPVYIPQPRPPHP[Gly(N-(CH2)3-guanidino)]L-OH); Not Active
2. CC[C@H](C)[C@H](NC(=O)[C@H](Cc1ccc(O)cc1)NC(=O)[C@@H](NC(=O)[C@@H]1CCCN1C(=O)[C@H](CCCNC(=N)N)NC(=O)[C@H](CC(N)=O)NC(=O)[C@H](CC(N)=O)NC(=O)CN)C(C)C)C(=O)N1CCC[C@H]1C(=O)N[C@@H](CCC(N)=O)C(=O)N1CCC[C@H]1C(=O)N[C@@H](CCCNC(=N)N)C(=O)N1CCC[C@H]1C(=O)N1CCC[C@H]1C(=O)N[C@@H](Cc1cnc[nH]1)C(=O)N1CCC[C@H]1C(=O)N[C@@H](CCCNC(=N)N)C(=O)N[C@@H](CC(C)C)C(=O)O; Not Active

----------
- RUN DESCRIPTION: Toxicity in human erythrocytes assessed as hemolytic activity at 300 uM after 60 mins
- Type: cell-based, Erythrocyte
- CONDITIONS USED: read-out: Activity
Non-standard residues stand in square brackets, D forms with d. Residues, ends and D or L forms follow the SMILES beside them. NhArg = N=C(N)NCCCCNCC(=O)O
EXPERIMENTAL ENDPOINT: hemolysis at 1 h, 300 µM (%)
// units = %; emit number, no label

1) CC[C@H](C)[C@H](NC(=O)[C@H](Cc1ccc(O)cc1)NC(=O)[C@@H](NC(=O)[C@@H]1CCCN1C(=O)[C@H](CCCNC(=N)N)NC(=O)[C@H](CC(N)=O)NC(=O)[C@H](CC(N)=O)NC(=O)CN)C(C)C)C(=O)N1CCC[C@H]1C(=O)N[C@@H](CCC(N)=O)C(=O)N1CCC[C@H]1C(=O)N[C@@H](CCCNC(=N)N)C(=O)N1CCC[C@H]1C(=O)N1CCC[C@H]1C(=O)N[C@@H](Cc1cnc[nH]1)C(=O)N1CCC[C@H]1C(=O)N(CCCCNC(=N)N)CC(=O)N[C@@H](CC(C)C)C(=O)O (H-GNNRPVYIPQPRPPHP[NhArg]L-OH); 0.81

Query compound follows.
Query: Look up hemolysis at 1 h, 300 µM: CC[C@H](C)[C@H](NC(=O)[C@H](Cc1ccc(O)cc1)NC(=O)[C@@H](NC(=O)[C@@H]1CCCN1C(=O)[C@H](CCCNC(=N)N)NC(=O)[C@H](CC(N)=O)NC(=O)[C@H](CC(N)=O)NC(=O)CN)C(C)C)C(=O)N1CCC[C@H]1C(=O)N[C@@H](CCC(N)=O)C(=O)N1CCC[C@H]1C(=O)N(CCCCNC(=N)N)CC(=O)N1CCC[C@H]1C(=O)N[C@@H](Cc1cnc[nH]1)C(=O)N1CCC[C@H]1C(=O)N[C@@H](CCCNC(=N)N)C(=O)N[C@@H](CC(C)C)C(=O)O (H-GNNRPVYIPQP[NhArg]PHPRL-OH)
Response: 1.31

----------
# maps each entry to its MIC
- Test system: Salmonella enterica subsp. enterica
- RUN DESCRIPTION: Antimicrobial activity against Salmonella Typhimurium ATCC 14028 after 18 hrs by broth microdilution susceptibility test
- Type: functional, Salmonella enterica subsp. enterica serovar Typhimurium
- CONDITIONS USED: ATCC 14028, 18 h
Non-standard residues stand in square brackets, D forms with d. Residues, ends and D or L forms follow the SMILES beside them. Gly(N-(CH2)3-guanidino) = N=C(N)NCCCNCC(=O)O
Give the value, in units of µM, as a plain number.

1. CC[C@H](C)[C@H](NC(=O)[C@H](Cc1ccc(O)cc1)NC(=O)[C@@H](NC(=O)[C@@H]1CCCN1C(=O)[C@H](CCCNC(=N)N)NC(=O)[C@H](CC(N)=O)NC(=O)[C@H](CC(N)=O)NC(=O)CN)C(C)C)C(=O)N1CCC[C@H]1C(=O)N[C@@H](CCC(N)=O)C(=O)N1CCC[C@H]1C(=O)N[C@@H](CCCNC(=N)N)C(=O)N1CCC[C@H]1C(=O)N1CCC[C@H]1C(=O)N[C@@H](Cc1cnc[nH]1)C(=O)N1CCC[C@H]1C(=O)N[C@@H](CCCNC(=N)N)C(=O)N[C@@H](CC(C)C)C(=O)O; 4

Query: Field request: MIC | item: CC[C@H](C)[C@H](NC(=O)[C@H](Cc1ccc(O)cc1)NC(=O)[C@@H](NC(=O)[C@@H]1CCCN1C(=O)CN(CCCNC(=N)N)C(=O)[C@H](CC(N)=O)NC(=O)[C@H](CC(N)=O)NC(=O)CN)C(C)C)C(=O)N1CCC[C@H]1C(=O)N[C@@H](CCC(N)=O)C(=O)N1CCC[C@H]1C(=O)N[C@@H](CCCNC(=N)N)C(=O)N1CCC[C@H]1C(=O)N1CCC[C@H]1C(=O)N[C@@H](Cc1cnc[nH]1)C(=O)N1CCC[C@H]1C(=O)N[C@@H](CCCNC(=N)N)C(=O)N[C@@H](CC(C)C)C(=O)O (H-GNN[Gly(N-(CH2)3-guanidino)]PVYIPQPRPPHPRL-OH)
Response: 16

Query: Now give it for CC[C@H](C)[C@H](NC(=O)[C@H](Cc1ccc(O)cc1)NC(=O)[C@@H](NC(=O)[C@@H]1CCCN1C(=O)[C@H](CCCNC(=N)N)NC(=O)[C@H](CC(N)=O)NC(=O)[C@H](CC(N)=O)NC(=O)CN)C(C)C)C(=O)N1CCC[C@H]1C(=O)N[C@@H](CCC(N)=O)C(=O)N1CCC[C@H]1C(=O)N(CCCNC(=N)N)CC(=O)N1CCC[C@H]1C(=O)N1CCC[C@H]1C(=O)N[C@@H](Cc1cnc[nH]1)C(=O)N1CCC[C@H]1C(=O)N[C@@H](CCCNC(=N)N)C(=O)N[C@@H](CC(C)C)C(=O)O (H-GNNRPVYIPQP[Gly(N-(CH2)3-guanidino)]PPHPRL-OH) too.
Response: 16
